Below, each of the compounds is paired with its reported pIC50 value.
subject_of_test: Neuropilin-1 (Homo sapiens) (UniProt O14786)
Sequence (O14786 whole entry, looked up): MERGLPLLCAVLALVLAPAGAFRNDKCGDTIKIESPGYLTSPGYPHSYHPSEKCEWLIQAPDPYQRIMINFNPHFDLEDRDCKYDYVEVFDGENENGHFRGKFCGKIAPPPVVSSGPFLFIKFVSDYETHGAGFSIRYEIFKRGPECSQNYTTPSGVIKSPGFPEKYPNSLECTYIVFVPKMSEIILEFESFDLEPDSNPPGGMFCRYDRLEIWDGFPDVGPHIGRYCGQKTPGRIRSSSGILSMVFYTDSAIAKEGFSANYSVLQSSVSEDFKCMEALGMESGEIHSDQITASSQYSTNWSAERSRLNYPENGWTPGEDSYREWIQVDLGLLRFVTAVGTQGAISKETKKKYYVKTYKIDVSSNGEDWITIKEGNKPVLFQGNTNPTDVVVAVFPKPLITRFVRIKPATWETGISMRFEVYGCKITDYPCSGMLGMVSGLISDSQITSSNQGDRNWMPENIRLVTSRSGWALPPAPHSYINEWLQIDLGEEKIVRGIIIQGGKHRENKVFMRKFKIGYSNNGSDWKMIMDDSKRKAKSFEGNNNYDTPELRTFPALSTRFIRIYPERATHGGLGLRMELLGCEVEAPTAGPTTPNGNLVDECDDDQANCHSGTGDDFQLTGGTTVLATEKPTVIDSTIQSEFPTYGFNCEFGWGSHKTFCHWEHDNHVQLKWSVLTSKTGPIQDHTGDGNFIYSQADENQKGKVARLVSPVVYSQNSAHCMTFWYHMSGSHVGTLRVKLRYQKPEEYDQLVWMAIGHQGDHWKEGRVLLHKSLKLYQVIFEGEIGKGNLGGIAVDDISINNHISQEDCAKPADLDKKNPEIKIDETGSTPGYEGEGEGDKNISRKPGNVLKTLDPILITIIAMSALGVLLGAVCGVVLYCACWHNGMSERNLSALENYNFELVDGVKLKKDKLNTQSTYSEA
test_summary: NRP-1 b1b2 CendR peptide binding inhibitors, dose response, biochemical, FP and AlphaScreen panel (AID 651650)
test_settings: NRP-1 b1b2 / RPARPAR peptide binding, FP or AlphaScreen; AlphaScreen, run 1; individual panel run IC50
pIC50: −log10 of the molar value.

Examples with their reported pIC50 follow.
// Input: `COC(=O)c1ccccc1NC(=O)CSc1nc(C)cc(C)n1` . Output its pIC50 only.
< 4.00

// Input: CCOc1ccc(N2C(=O)CC(N3CCN(c4ccc(Cl)cc4)CC3)C2=O)cc1 (stereo unspecified) . Output its pIC50 only.
4.65

// Input: CC(=O)C(C(c1ccccc1)N1CCCc2ccccc21)N1CCOCC1 (stereo unspecified) . Output its pIC50 only.
4.14

// Input: `O=C(/C=C/c1ccco1)N/C(=C\c1ccccc1)C(=O)NCCc1nc2ccccc2[nH]1` . Output its pIC50 only.
< 4.00

// Input: `Cc1cc(S(=O)(=O)NC2CCCCC2)ccc1OCC(=O)N1CCOCC1` . Output its pIC50 only.
4.82

Others:
// Input: `CC(/C=C/c1ccccc1)=N\NC(=O)CCc1ccccc1` . Output its pIC50 only.
< 4.00

====

subject_of_test: Neuropilin-1 (Homo sapiens)
test_summary: NRP-1 b1b2 CendR peptide binding inhibitors, dose response, biochemical, FP and AlphaScreen panel (AID 651650)
test_settings: NRP-1 b1b2 / RPARPAR peptide binding, FP or AlphaScreen; AlphaScreen, mean of runs
Activity calls are given as the source filed them.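 Rule for the calls: active = mean IC50 below 20 µM in each of the two panels, so potent in both; inactive = the rest.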
Mark one answer only. Choices: class 1 = active, class 0 = inactive

// param item: `COC(=O)c1cccc(NC(=S)NCCC2=CCCCC2)c1` ; yields the recorded call
class 0

// param item: `O=C(O)c1ccccc1CSc1ccccn1` ; yields the recorded call
class 1

// param item: `Cc1ccc(Cl)c(NC(=O)CSc2cccc[n+]2[O-])c1Cl` ; yields the recorded call
class 0

// param item: `COC(=O)C1=C(c2cccc(C#N)c2)C[C@@H]2CC[C@H]1N2C(=O)NCCO` ; yields the recorded call
class 0

// param item: `O=C(Nc1cccc(S(=O)(=O)N2CCCCC2)c1)c1ccc([N+](=O)[O-])o1` ; yields the recorded call
class 0

Others:
// param item: `Cc1cc(NC(=O)COC(=O)c2ccc(C)c(C)c2)no1` ; yields the recorded call
class 0

====

subject_of_test: Neuropilin-1 (Homo sapiens)
test_summary: NRP-1 b1b2 CendR peptide binding inhibitors, dose response, biochemical, FP and AlphaScreen panel (AID 651650)
test_settings: NRP-1 b1b2 / RPARPAR peptide binding, FP or AlphaScreen; AlphaScreen, run 1; individual panel run IC50
result_type: IC50

// Input: COc1ccc(C(=O)N2CCC(C)(C(=O)NS(=O)(=O)C3CC3)C2)cc1F (stereo not given) . Output its IC50 only.
> 100 µM

// Input: `CN(Cc1ccccc1)C(=O)c1nc[nH]c1C(=O)N1CCN(C(=O)OC(C)(C)C)CC1` . Output its IC50 only.
> 100 µM

Others:
// Input: `COc1ccc(NC(=O)CN2CCN(c3c(C)cc(C)cc3C)CC2)cc1` . Output its IC50 only.
> 100 µM

// Input: `Cc1ccc(NC(=O)c2ccc3c(c2)S(=O)(=O)c2ccccc2C3=O)cc1S(=O)(=O)N1CCOCC1` . Output its IC50 only.
> 100 µM

// Input: COC(=O)CCCC1=CC2=CC(=O)C(C)(OC(=O)c3cccs3)C(=O)C2=CN1CCCCO (stereo not given) . Output its IC50 only.
> 100 µM

// Input: `O=C(CCC(=O)Nc1ccccc1Cl)NN=C1CCCC1` . Output its IC50 only.
43.4 µM

// Input: `COc1ccc(Cn2c3ccc(OC)cc3c3nc4ccccc4nc32)cc1` . Output its IC50 only.
38.9 µM

// Input: Cc1cc2c(cc1C)NC(c1nc3ccccc3[nH]1)C1=C(CC(C)(C)CC1=O)N2 (stereo not given) . Output its IC50 only.
> 100 µM

Hey, just so you know, these numbers are from PubChem BioAssay AID651650.
